- assayed_target: Alpha-1D adrenergic receptor (Homo sapiens)
- Sequence (P25100 whole entry): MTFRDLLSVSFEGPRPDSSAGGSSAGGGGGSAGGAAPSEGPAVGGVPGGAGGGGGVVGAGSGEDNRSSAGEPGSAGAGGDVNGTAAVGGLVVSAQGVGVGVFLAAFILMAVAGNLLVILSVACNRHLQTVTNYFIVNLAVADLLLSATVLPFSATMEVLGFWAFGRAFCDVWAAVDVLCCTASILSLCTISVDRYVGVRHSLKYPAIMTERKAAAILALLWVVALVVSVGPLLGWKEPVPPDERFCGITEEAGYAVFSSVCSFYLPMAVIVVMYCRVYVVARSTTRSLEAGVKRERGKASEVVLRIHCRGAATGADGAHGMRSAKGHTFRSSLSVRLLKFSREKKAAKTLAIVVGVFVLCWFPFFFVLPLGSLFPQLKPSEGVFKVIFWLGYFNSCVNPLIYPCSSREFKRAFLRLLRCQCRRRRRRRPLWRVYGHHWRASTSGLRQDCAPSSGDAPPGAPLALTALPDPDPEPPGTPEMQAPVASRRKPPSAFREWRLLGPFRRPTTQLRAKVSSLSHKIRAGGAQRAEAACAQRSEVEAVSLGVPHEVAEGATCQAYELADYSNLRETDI
Reported Ki maps to class as: low bin = under 900 nM, mid bin = from 900 nM up to 2000 nM, high bin = 2000 nM and over

compound	assayed_target	label_value
CS(=O)(=O)c1ccc(Cl)cc1NCC1=NCCN1	Alpha-1D adrenergic receptor (Homo sapiens)	high bin
CS(=O)(=O)c1ccc(C(F)(F)F)cc1NCC1=NCCN1	Alpha-1D adrenergic receptor (Homo sapiens)	high bin
CS(=O)(=O)c1c(F)cccc1NCC1=NCCN1	Alpha-1D adrenergic receptor (Homo sapiens)	high bin
CSc1ccc(C(F)(F)F)cc1NCC1=NCCN1	Alpha-1D adrenergic receptor (Homo sapiens)	low bin
CCS(=O)(=O)c1ccccc1NCC1=NCCN1	Alpha-1D adrenergic receptor (Homo sapiens)	high bin
CS(=O)(=O)c1ccc(F)cc1NCC1=NCCN1	Alpha-1D adrenergic receptor (Homo sapiens)	high bin
CS(=O)(=O)c1cc(Cl)ccc1NCC1=NCCN1	Alpha-1D adrenergic receptor (Homo sapiens)	low bin
COc1ccc(S(C)(=O)=O)c(NCC2=NCCN2)c1	Alpha-1D adrenergic receptor (Homo sapiens)	high bin
CSc1c(F)cccc1NCC1=NCCN1	Alpha-1D adrenergic receptor (Homo sapiens)	low bin
CS(=O)(=O)c1cc(F)ccc1NCC1=NCCN1	Alpha-1D adrenergic receptor (Homo sapiens)	mid bin
CC(C)Sc1ccccc1NCC1=NCCN1	Alpha-1D adrenergic receptor (Homo sapiens)	low bin
C[S+]([O-])c1ccccc1NCC1=NCCN1 (stereo not drawn)	Alpha-1D adrenergic receptor (Homo sapiens)	mid bin

###

Property: Max; scope: individual compounds
- assayed_target: Alpha-1B adrenergic receptor (Homo sapiens)
- Sequence (whole entry): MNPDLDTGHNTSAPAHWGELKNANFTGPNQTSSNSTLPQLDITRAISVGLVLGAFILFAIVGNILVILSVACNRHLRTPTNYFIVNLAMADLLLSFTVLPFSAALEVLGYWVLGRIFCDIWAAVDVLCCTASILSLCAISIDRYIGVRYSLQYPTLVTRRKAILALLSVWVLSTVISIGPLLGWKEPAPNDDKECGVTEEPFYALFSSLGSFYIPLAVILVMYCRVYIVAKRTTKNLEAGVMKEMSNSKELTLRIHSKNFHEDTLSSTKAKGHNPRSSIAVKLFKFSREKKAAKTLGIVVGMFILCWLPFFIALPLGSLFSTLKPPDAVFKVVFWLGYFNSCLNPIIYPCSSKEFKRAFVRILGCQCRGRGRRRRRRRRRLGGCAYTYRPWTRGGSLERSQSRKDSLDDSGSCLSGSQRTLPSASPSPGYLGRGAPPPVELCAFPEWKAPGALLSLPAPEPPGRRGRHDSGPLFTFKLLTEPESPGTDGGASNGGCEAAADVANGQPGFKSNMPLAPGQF
- protocol_notes: Efficacy as % of the maximal effect observed for nonselective agonist phenylephrine in rat-1 fibroblasts expressing human Alpha-1B adrenergic receptor
- Assay type: functional
readout_type: Max

smi	readout_type	assay_value
CSc1ccc(Cl)cc1NCC1=NCCN1	Max	103%
CSc1cc(F)ccc1NCC1=NCCN1	Max	78%
Cc1ccc(S(C)(=O)=O)c(NCC2=NCCN2)c1	Max	91%
CSc1ccc(C(F)(F)F)cc1NCC1=NCCN1	Max	114%
CC(C)Sc1ccccc1NCC1=NCCN1	Max	29%
COc1ccc(SC)c(NCC2=NCCN2)c1	Max	92%
CSc1ccc(F)cc1NCC1=NCCN1	Max	92%
CCSc1ccccc1NCC1=NCCN1	Max	82%
CSc1ccc(C)cc1NCC1=NCCN1	Max	96%
CSc1c(F)cccc1NCC1=NCCN1	Max	48%
CS(=O)(=O)c1ccc(Cl)cc1NCC1=NCCN1	Max	103%

###

- assayed_target: Alpha-1D adrenergic receptor (Homo sapiens)
Property: Ki; scope: individual molecules

smi	assayed_target	unit_abbreviation	Ki
CCSc1ccccc1NCC1=NCCN1	Alpha-1D adrenergic receptor (Homo sapiens)	µM	0.0575
CSc1ccc(C)cc1NCC1=NCCN1	Alpha-1D adrenergic receptor (Homo sapiens)	µM	0.0174
CC(C)S(=O)(=O)c1ccccc1NCC1=NCCN1	Alpha-1D adrenergic receptor (Homo sapiens)	µM	2.82
CSc1ccc(Cl)cc1NCC1=NCCN1	Alpha-1D adrenergic receptor (Homo sapiens)	µM	0.00468

###

Property: pEC50; scope: individual compounds
- assayed_target: Alpha-1A adrenergic receptor (Homo sapiens, UniProt P35348)
- protocol_notes: Agonist potency at Alpha-1 adrenergic receptor assayed in rat-1 fibroblasts expressing human Alpha-1 adrenergic receptor
- Format: functional
pEC50: −log10 of the molar value.
readout_type: pEC50

smi	relational_operator	assay_value
CS(=O)(=O)c1ccc(C(F)(F)F)cc1NCC1=NCCN1	=	5.96
CCSc1ccccc1NCC1=NCCN1	=	8.47
CSc1ccc(C)cc1NCC1=NCCN1	=	9.96
CSc1cc(F)ccc1NCC1=NCCN1	=	8.11
CC(C)S(=O)(=O)c1ccccc1NCC1=NCCN1	=	5.71
CSc1c(F)cccc1NCC1=NCCN1	=	8.11
CS(=O)(=O)c1cccc(F)c1NCC1=NCCN1	=	7.38
Cc1ccc(S(C)(=O)=O)c(NCC2=NCCN2)c1	=	8.71
COc1ccc(S(C)(=O)=O)c(NCC2=NCCN2)c1	=	7.85
CSc1ccc(C(F)(F)F)cc1NCC1=NCCN1	=	7.98
CS(=O)(=O)c1ccc(F)cc1NCC1=NCCN1	=	7.78
CCS(=O)(=O)c1ccccc1NCC1=NCCN1	=	6.62
CC(C)Sc1ccccc1NCC1=NCCN1	=	8.30
CS(=O)(=O)Nc1ccc(F)c([C@@H](O)CN)c1	=	6.80
O=S1(=O)CCCc2cccc(NCC3=NCCN3)c21	<	4.00
CSc1ccc(Cl)cc1NCC1=NCCN1	=	9.36
CSc1ccc(F)cc1NCC1=NCCN1	=	8.64
CS(=O)(=O)c1cc(Cl)ccc1NCC1=NCCN1	=	6.29
COc1ccc(SC)c(NCC2=NCCN2)c1	=	8.80
CS(=O)(=O)c1ccc(Cl)cc1NCC1=NCCN1	=	8.55
CS(=O)(=O)c1c(F)cccc1NCC1=NCCN1	=	7.62

###

- assayed_target: Alpha-1A adrenergic receptor (Homo sapiens, UniProt P35348)
- Sequence (P35348 whole entry): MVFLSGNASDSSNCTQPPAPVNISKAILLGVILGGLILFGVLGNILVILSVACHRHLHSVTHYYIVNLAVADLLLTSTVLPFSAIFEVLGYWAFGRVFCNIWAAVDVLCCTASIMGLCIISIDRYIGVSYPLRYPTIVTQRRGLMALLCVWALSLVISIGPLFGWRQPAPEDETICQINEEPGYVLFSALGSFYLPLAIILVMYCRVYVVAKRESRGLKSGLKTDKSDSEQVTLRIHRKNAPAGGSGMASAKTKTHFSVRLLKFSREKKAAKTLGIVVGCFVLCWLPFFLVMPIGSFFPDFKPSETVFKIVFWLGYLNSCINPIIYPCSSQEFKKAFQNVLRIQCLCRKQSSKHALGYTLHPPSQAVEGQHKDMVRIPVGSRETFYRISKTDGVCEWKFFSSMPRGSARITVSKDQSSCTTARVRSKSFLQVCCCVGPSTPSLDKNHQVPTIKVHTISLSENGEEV
readout_type: Ki (nM)

smi	readout_type	assay_value
CS(=O)(=O)c1cc(Cl)ccc1NCC1=NCCN1	Ki	457
O=S1(=O)CCCc2cccc(NCC3=NCCN3)c21	Ki	617
CSc1ccc(C)cc1NCC1=NCCN1	Ki	20.9
COc1ccc(S(C)(=O)=O)c(NCC2=NCCN2)c1	Ki	1620
CCS(=O)(=O)c1ccccc1NCC1=NCCN1	Ki	1200
CSc1ccc(C(F)(F)F)cc1NCC1=NCCN1	Ki	589
CS(=O)(=O)c1cccc(F)c1NCC1=NCCN1	Ki	417
CS(=O)(=O)c1ccc(F)cc1NCC1=NCCN1	Ki	813
CS(=O)(=O)c1ccc(Cl)cc1NCC1=NCCN1	Ki	537
CC(C)Sc1ccccc1NCC1=NCCN1	Ki	57.5
COc1ccc(SC)c(NCC2=NCCN2)c1	Ki	174
CSc1ccccc1NCC1=NCCN1	Ki	43.7
CCSc1ccccc1NCC1=NCCN1	Ki	43.7
CSc1c(F)cccc1NCC1=NCCN1	Ki	148
